- target-under-test: human CXCR4 (cell-expressed) (human, UniProt P61073 1-352)
- Sequence (P61073 whole entry): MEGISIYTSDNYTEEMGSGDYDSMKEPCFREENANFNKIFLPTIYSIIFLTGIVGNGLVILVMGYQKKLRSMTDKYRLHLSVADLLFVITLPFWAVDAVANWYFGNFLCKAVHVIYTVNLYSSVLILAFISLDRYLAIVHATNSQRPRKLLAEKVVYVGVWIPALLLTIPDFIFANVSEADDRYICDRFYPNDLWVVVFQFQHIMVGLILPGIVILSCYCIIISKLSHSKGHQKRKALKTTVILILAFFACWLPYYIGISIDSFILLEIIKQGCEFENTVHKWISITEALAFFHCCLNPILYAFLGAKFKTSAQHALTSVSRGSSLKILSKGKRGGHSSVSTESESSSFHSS
- experiment-notes: cell-based or functional assay
measurement-name: % Max Inhibition, cAMP HTRF assay, CXCR4 BacMam HEK-293 cells (%)
Reply with just the number (in %).

Please review the entries below; each comes with its answer.
binder="CL-82558 (antibody, human IgG4 S228P, kappa, V domains shown, Tested in human IgG4-PE format; also called CL-82558 (IgG4-PE format)) VH: QVQLQESGPGLVKPSQTLSLTCTVSGGSISSGGYYWSWIRQVPGKGLEWIGYISYSGNTFYSPSLKSRVTISVDTSENKFSLRLTSVTAADTAVYFCARDRRIPMLRGVKGYYYGLDVWGQGTTVTVSS VL: DIVMTQSPLSLPVIPGEPASISCRSSQSLLHRNGYKYLDWYLQKPGQSPQLLIYLGSNRASGVPARFSGSGSGTDFTLKISRVEAEDVGVYYCMQALQTPWTFGQGTKVEIKR" measurement_units=% numeric_readout=94
binder="CL-82571 (antibody, human IgG4 S228P, kappa, V domains shown, Tested in human IgG4-PE format) VH: EVQLVESGGGLVQPGGSLKLSCAASGFTFSGSAMHWVRQASGKGLEWVGRIRSKANKYATAYAASVKGRFTISRDDSKNTAYVQMKSLKTEDTAVYYCTWELSNYDILTGFYYGMDVWGQGTTVTVSS VL: DIQMTQSPSTLSASVGDRVTITCRASQSISNWLAWYQQKPGKAPKVLIYKASSLESGVPSRFSGSGSGTEFTLTISSLQPDDFATYYCQQYNSFSWTFGQGTKVEIKR" measurement_units=% numeric_readout=88
binder="CL-82517 (antibody, human IgG4 S228P, kappa, V domains shown, Tested in human IgG4-PE format) VH: EVQLVESGGGLVKPGGSLRLSCAASGFTFSSYSMNWVRQAPGKGLEWVSSISSSRRYIYYADSVKGRFTISRDNAKNSLYLQMNSLRAEDTAVYYCARAYGQVAPYYYYGMDVWGQGTTVTVSS VL: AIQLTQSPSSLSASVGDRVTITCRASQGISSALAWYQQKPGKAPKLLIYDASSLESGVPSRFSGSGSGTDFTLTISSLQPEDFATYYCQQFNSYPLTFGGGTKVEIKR" measurement_units=% numeric_readout=79

Recorded % Max Inhibition, cAMP HTRF assay, CXCR4 BacMam HEK-293 cells (binder CL-82562 (antibody, human IgG4 S228P, kappa, V domains shown, Tested in human IgG4-PE format) VH: QVQLVESGGGVVQPGRSLRLSCTASGFTFSNYAMHWVRQAPGKGLEWVAVISYDGSNKYCADSVKGRFTISRDNSKNTLYLQMNSLRAEDTAVYYCARGPLARRHYYYYGMDVWGQGTTVTVSS VL: DIQMTQSPSSLSASVGDRVTITCRASQGIRNDLGWYQQKPGKAPKRLIYGASSLQSGVPSRFSGSGSGTEFTLTISSLQPEDFATYYCLQHNSYPRTFGQGTKVEIKR ): 92

Recorded % Max Inhibition, cAMP HTRF assay, CXCR4 BacMam HEK-293 cells (binder CL-82455 (antibody, human IgG4 S228P, kappa, V domains shown) VH: QVQLVESGGGVVQPGRSLRLSCAASGFTFNNYGMHWVRQAPGKGLEWVAVIWNDGSNKYYGDSVKGRFTISRDNSKNTLYLQMNSLRAEDTAVYYCARGGGYYGSGKHYRGYYYNGMGVWGQGTPVTVSS VL: EIVMTQSPATLSVSPGERATLSCRASQSVSSNLAWYQQKPGQAPRLLIYGASTRATGIPARFSGSGSGTEVTLTISSLQSEDFTIYYCQQYNNWPWTFGQGTKVDIKR ): 103
